Reference source for all entries: PubChem BioAssay (Tox21)

- tested target: Cytochrome P450 2C9 (Homo sapiens)
- method summary: Cytochrome P450 Family 2 Subfamily C Member 9 (CYP2C9) small molecule antagonists: luciferase reporter qHTS assay (AID 1671198); note: nearly all actives have a fitted effect of over 50% in size
- condition details: P450-Glo CYP2C9 enzyme assay, luciferin luminescence; series mostly up to 115 µM
Results filed as inconclusive are left out. Calls of active or inactive are those of the source. Calls come from the whole dose curve; as a rule, active = well fitted inhibition curve with a large enough effect in the repeat runs; inconclusive = weak or mixed curves; inactive = no such curve, though single readings can be large or run the other way.
// allowed return values: active, inactive

| compound | group label |
| --- | --- |
| CN1C(=O)[C@@H](NC(=O)c2cc3ccccc3[nH]2)N=C(c2ccccc2)c2ccccc21 | active |
| CCOP(=O)(OCC)Oc1cc(C)nc(C(C)C)n1 | inactive |
| O=S1(=O)OCC2C(CO1)C1(Cl)C(Cl)=C(Cl)C2(Cl)C1(Cl)Cl (configuration not stated) | active |
| CC(C)(C)c1ccc(OP(=O)(Oc2ccccc2)Oc2ccccc2)cc1 | active |
| ClCBr | inactive |

Inquiry: Hi, do you know how O=C(CCCCl)c1ccc(F)cc1 came out in this test?
Reply text: inactive

Inquiry: Same lookup for CC(Cc1ccc(OCC(=O)O)cc1)NCC(O)c1csc(C(F)(F)F)n1 (configuration not stated) , please.
Reply text: inactive
